- Procedure Details: Plasma pharmacokinetics of ALM201 in Phase I patients (validated LC-MS/MS, Phoenix WinNonlin)
- Measurement Conditions: human, plasma, sc, 200 mg, Plasma concentration, geometric mean (CV%), 200 mg SC, day 3 cycle 1, 0.5 h after dosing, n = 4; LC-MS/MS
No end group written: not given here.
Readout Label: level at 0.5 h (µg/mL)
Give bare numbers, in µg/mL.

Request: Look up level at 0.5 h for this sequence: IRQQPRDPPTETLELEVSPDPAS [ALM201]
Result: 1.09

###

- Procedure Details: Plasma pharmacokinetics of ALM201 in Phase I patients (validated LC-MS/MS, Phoenix WinNonlin)
- Measurement Conditions: human, plasma, sc, 80 mg, Plasma concentration, geometric mean (CV%), 80 mg SC, day 18 cycle 1, 3.5 h after dosing, n = 2; LC-MS/MS
No end group written: not given here.
Readout Label: level at 3.5 h (ng/mL)
One number for each entry, in ng/mL.

Request: Look up level at 3.5 h for this sequence: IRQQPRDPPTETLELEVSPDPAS [ALM201]
Result: 545

###

- Procedure Details: Plasma pharmacokinetics of ALM201 in Phase I patients (validated LC-MS/MS, Phoenix WinNonlin)
- Measurement Conditions: human, plasma, sc, 200 mg, Plasma concentration, geometric mean (CV%), 200 mg SC, day 18 cycle 1, 2 h after dosing, n = 2 values (CV NC); LC-MS/MS
No end group written: not given here.
Readout Label: level at 2 h (ng/mL)
Numbers only, in ng/mL.

Request: Look up level at 2 h for this sequence: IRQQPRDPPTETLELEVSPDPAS [ALM201]
Result: 1580

###

- Procedure Details: Plasma pharmacokinetics of ALM201 in Phase I patients (validated LC-MS/MS, Phoenix WinNonlin)
- Measurement Conditions: human, plasma, sc, 80 mg, Cmax, Gmean (CV), 80 mg SC, day 18 cycle 1, n = 2, CV not calculated; plasma LC-MS/MS
No end group written: not given here.
Readout Label: Cmax (ng/mL)
Numbers only, in ng/mL.

Request: Look up Cmax for this sequence: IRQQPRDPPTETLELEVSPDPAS [ALM201]
Result: 1090

###

- Procedure Details: Plasma pharmacokinetics of ALM201 in Phase I patients (validated LC-MS/MS, Phoenix WinNonlin)
- Measurement Conditions: human, plasma, sc, 100 mg, Plasma concentration, geometric mean (CV%), 100 mg SC, day 3 cycle 1, 1 h after dosing, n = 4; LC-MS/MS
No end group written: not given here.
Readout Label: level at 1 h (ng/mL)
Numbers only, in ng/mL.

Request: Look up level at 1 h for this sequence: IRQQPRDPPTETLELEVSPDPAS [ALM201]
Result: 2100

###

- Procedure Details: Plasma pharmacokinetics of ALM201 in Phase I patients (validated LC-MS/MS, Phoenix WinNonlin)
- Measurement Conditions: human, plasma, sc, 100 mg, Plasma concentration, geometric mean (CV%), 100 mg SC, day 18 cycle 1, 0.5 h after dosing, n = 2; LC-MS/MS
No end group written: not given here.
Readout Label: level at 0.5 h (ng/mL)
Give bare numbers, in ng/mL.

Request: Look up level at 0.5 h for this sequence: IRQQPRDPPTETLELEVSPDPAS [ALM201]
Result: 1890

###

- Procedure Details: Plasma pharmacokinetics of ALM201 in Phase I patients (validated LC-MS/MS, Phoenix WinNonlin)
- Measurement Conditions: human, plasma, sc, 200 mg, Plasma concentration, geometric mean (CV%), 200 mg SC, day 1 cycle 1, 5 h after dosing, n = 4; LC-MS/MS
No end group written: not given here.
Readout Label: level at 5 h (ng/mL)
Give bare numbers, in ng/mL.

Request: Look up level at 5 h for this sequence: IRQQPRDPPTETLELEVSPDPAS [ALM201]
Result: 620

###

- Procedure Details: Plasma pharmacokinetics of ALM201 in Phase I patients (validated LC-MS/MS, Phoenix WinNonlin)
- Measurement Conditions: human, plasma, sc, 80 mg, Plasma concentration, geometric mean (CV%), 80 mg SC, day 3 cycle 1, 5 h after dosing, n = 3; LC-MS/MS
No end group written: not given here.
Readout Label: level at 5 h (ng/mL)
Answers are plain numbers, in ng/mL.

Request: Look up level at 5 h for this sequence: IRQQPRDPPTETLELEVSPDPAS [ALM201]
Result: 325

###

- Procedure Details: Plasma pharmacokinetics of ALM201 in Phase I patients (validated LC-MS/MS, Phoenix WinNonlin)
- Measurement Conditions: human, plasma, sc, 20 mg, Plasma concentration, geometric mean (CV%), 20 mg SC, day 18 cycle 1, 2 h after dosing, n = 1; LC-MS/MS
No end group written: not given here.
Readout Label: level at 2 h (ng/mL)
One number for each entry, in ng/mL.

Request: Look up level at 2 h for this sequence: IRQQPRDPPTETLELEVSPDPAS [ALM201]
Result: 224

###

- Procedure Details: Plasma pharmacokinetics of ALM201 in Phase I patients (validated LC-MS/MS, Phoenix WinNonlin)
- Measurement Conditions: human, plasma, sc, 80 mg, Plasma concentration, geometric mean (CV%), 80 mg SC, day 18 cycle 1, 1 h after dosing, n = 2; LC-MS/MS
No end group written: not given here.
Readout Label: level at 1 h (ng/mL)
Answers are plain numbers, in ng/mL.

Request: Look up level at 1 h for this sequence: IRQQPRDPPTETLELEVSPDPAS [ALM201]
Result: 946

###

- Procedure Details: Plasma pharmacokinetics of ALM201 in Phase I patients (validated LC-MS/MS, Phoenix WinNonlin)
- Measurement Conditions: human, plasma, sc, 300 mg, Plasma concentration, geometric mean (CV%), 300 mg SC, day 18 cycle 6, 1.5 h after dosing, n = 1; LC-MS/MS
No end group written: not given here.
Readout Label: level at 1.5 h (ng/mL)
Answers are plain numbers, in ng/mL.

Request: Look up level at 1.5 h for this sequence: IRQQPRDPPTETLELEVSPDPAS [ALM201]
Result: 5240

###

- Procedure Details: Plasma pharmacokinetics of ALM201 in Phase I patients (validated LC-MS/MS, Phoenix WinNonlin)
- Measurement Conditions: human, plasma, sc, 80 mg, Plasma concentration, geometric mean (CV%), 80 mg SC, day 3 cycle 1, 1 h after dosing, n = 3; LC-MS/MS
No end group written: not given here.
Readout Label: level at 1 h (ng/mL)
Numbers only, in ng/mL.

Request: Look up level at 1 h for this sequence: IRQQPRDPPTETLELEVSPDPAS [ALM201]
Result: 684

###

- Procedure Details: Plasma pharmacokinetics of ALM201 in Phase I patients (validated LC-MS/MS, Phoenix WinNonlin)
- Measurement Conditions: human, plasma, sc, 10 mg, Plasma concentration, geometric mean (CV%), 10 mg SC, day 18 cycle 6, 1.5 h after dosing, n = 1; LC-MS/MS
No end group written: not given here.
Readout Label: level at 1.5 h (ng/mL)
Numbers only, in ng/mL.

Request: Look up level at 1.5 h for this sequence: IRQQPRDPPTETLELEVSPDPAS [ALM201]
Result: 470

###

- Procedure Details: Plasma pharmacokinetics of ALM201 in Phase I patients (validated LC-MS/MS, Phoenix WinNonlin)
- Measurement Conditions: human, plasma, sc, 80 mg, Plasma concentration, geometric mean (CV%), 80 mg SC, day 1 cycle 1, 0.25 h after dosing, n = 3; LC-MS/MS
No end group written: not given here.
Readout Label: level at 0.25 h (ng/mL)
Give bare numbers, in ng/mL.

Request: Look up level at 0.25 h for this sequence: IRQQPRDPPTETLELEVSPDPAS [ALM201]
Result: 292

###

- Procedure Details: Plasma pharmacokinetics of ALM201 in Phase I patients (validated LC-MS/MS, Phoenix WinNonlin)
- Measurement Conditions: human, plasma, sc, 40 mg, Plasma concentration, geometric mean (CV%), 40 mg SC, day 3 cycle 1, 1.5 h after dosing, n = 1; LC-MS/MS
No end group written: not given here.
Readout Label: level at 1.5 h (ng/mL)
Give bare numbers, in ng/mL.

Request: Look up level at 1.5 h for this sequence: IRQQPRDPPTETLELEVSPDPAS [ALM201]
Result: 759

###

- Procedure Details: Plasma pharmacokinetics of ALM201 in Phase I patients (validated LC-MS/MS, Phoenix WinNonlin)
- Measurement Conditions: human, plasma, sc, 300 mg, Plasma concentration, geometric mean (CV%), 300 mg SC, day 18 cycle 6, sample collected at 4.5 hours, n = 1; LC-MS/MS
No end group written: not given here.
Readout Label: level at 4.5 h (ng/mL)
Give bare numbers, in ng/mL.

Request: Look up level at 4.5 h for this sequence: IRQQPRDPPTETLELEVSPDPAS [ALM201]
Result: 3600
